Numbers sourced from paper PMC8587863.

# tgt: human DOR (delta opioid receptor) (Homo sapiens, UniProt P41143)
# Construct: full-length receptor expressed in CHO-K1 cells
# Sequence (P41143 whole entry): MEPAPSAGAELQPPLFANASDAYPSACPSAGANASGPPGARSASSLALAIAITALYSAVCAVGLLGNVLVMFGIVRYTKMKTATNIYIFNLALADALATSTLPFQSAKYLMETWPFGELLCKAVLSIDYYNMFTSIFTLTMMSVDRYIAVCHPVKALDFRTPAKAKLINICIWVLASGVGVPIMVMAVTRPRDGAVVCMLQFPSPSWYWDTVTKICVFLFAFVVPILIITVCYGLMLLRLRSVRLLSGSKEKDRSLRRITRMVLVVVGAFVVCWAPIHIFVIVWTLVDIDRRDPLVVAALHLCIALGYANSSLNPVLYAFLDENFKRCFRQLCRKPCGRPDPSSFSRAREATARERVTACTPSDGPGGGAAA
# assay_name: cAMP accumulation, live DOR-CHO cells
Answer each item with its documented EC50.
Please append the unit to your numeric answer.

Consider O=C(C1CC1)N1CC[C@]23c4c5ccc(O)c4O[C@H]2c2[nH]c4ccccc4c2C[C@@]3(O)[C@H]1C5 . Its measured EC50 is 265 nM

Consider O=C(C1CC1)N1CC[C@]23c4c5ccc(O)c4O[C@H]2c2ncc(-c4ccc(Cl)cc4)cc2C[C@@]3(O)[C@H]1C5 . Its measured EC50 is 770 nM
